These compounds were tested on USP8 (Homo sapiens); pIC50 is the recorded read-out.
Sequence (P40818 whole entry): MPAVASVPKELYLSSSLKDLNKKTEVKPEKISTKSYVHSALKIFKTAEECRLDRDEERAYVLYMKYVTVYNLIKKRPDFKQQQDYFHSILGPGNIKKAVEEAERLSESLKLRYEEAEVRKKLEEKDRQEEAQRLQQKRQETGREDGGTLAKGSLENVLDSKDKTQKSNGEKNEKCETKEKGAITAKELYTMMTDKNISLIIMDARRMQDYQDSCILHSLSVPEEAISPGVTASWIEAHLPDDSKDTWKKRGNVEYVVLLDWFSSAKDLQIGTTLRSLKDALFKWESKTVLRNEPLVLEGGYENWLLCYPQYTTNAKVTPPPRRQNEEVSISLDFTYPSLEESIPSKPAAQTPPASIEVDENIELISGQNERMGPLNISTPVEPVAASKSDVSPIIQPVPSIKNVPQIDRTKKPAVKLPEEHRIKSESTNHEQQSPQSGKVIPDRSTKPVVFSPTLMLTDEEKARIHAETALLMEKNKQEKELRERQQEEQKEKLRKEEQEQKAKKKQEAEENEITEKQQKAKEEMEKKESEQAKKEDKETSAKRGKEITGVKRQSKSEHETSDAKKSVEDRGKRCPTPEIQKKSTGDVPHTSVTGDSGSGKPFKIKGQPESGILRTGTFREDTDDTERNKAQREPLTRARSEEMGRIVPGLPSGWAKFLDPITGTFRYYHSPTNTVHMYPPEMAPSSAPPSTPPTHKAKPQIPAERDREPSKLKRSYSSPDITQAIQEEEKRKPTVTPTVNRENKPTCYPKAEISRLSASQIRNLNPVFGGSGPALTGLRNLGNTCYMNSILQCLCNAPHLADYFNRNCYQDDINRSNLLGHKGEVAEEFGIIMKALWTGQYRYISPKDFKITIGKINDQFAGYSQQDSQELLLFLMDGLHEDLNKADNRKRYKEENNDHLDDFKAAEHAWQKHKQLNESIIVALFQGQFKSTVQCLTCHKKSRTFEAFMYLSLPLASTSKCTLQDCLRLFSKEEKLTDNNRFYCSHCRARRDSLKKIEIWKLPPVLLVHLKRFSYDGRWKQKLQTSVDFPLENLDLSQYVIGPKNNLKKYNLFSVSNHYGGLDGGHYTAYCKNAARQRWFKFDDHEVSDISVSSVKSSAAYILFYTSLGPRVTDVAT
For clarity, pIC50 is expressed as the negative log10 of concentration in mol/L.

In the examples that follow, each entry is paired with its recorded pIC50.
INSERT INTO results (compound, tested_target, quantity_measured, data_value) VALUES
  ('COc1ccc2c(c1)-c1nc(C#N)c(C#N)nc1C2=O [Example 17a]', 'USP8 (Homo sapiens)', 'pIC50', 5.40),
  ('N#Cc1nc2c(nc1C#N)-c1ccccc1C2=NO [Example 12]', 'USP8 (Homo sapiens)', 'pIC50', 5.15);

Q: So what pIC50 did N#Cc1nc2c(nc1C#N)-c1ccc(Cl)cc1C2=NNC(N)=O [Example 43] get with USP8 (Homo sapiens)?
A: 6.09

Q: What reported pIC50 corresponds to CCOC(=O)CNC(=O)CO/N=C1\c2ccccc2-c2nc(C(N)=O)c(C#N)nc21 [Example 40] on USP8 (Homo sapiens)?
A: 6.81

Q: Identify the measured pIC50 of N#Cc1nc2c(nc1C#N)-c1cc(Cl)c(Cl)cc1C2=O [Example 31] for USP8 (Homo sapiens).
A: 7.12

Q: Param readout= pIC50; system= USP8 (Homo sapiens); entry= N#Cc1nc2c(nc1C#N)-c1ccc(Cl)cc1C2=NOCCOc1ccccc1 [Example 27b] ; returns value.
A: 4.95

Q: Which pIC50 is reported with USP8 (Homo sapiens) for this entry: COCCON=C1c2ccccc2-c2nc(C(N)=O)c(C#N)nc21 [Example 34c] ?
A: 7.15

Q: Notebook entry, USP8 (Homo sapiens) assay: pIC50 of COc1ccc2c(c1OC)C(=O)c1nc(C#N)c(C#N)nc1-2 [Example 17d] = ?
A: 6.15
